Data credit: the Human Domainome abundance scans (Beltran et al. 2025)

B1: Homeobox protein cut-like 1, residues 941 to 1008; numbered along this chain, P39880 (parent)
chain: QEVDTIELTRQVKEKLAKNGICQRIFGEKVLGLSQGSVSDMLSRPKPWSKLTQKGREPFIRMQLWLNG

variants of: B1; test: abundance fitness (aPCA) (normalised: wild type 0, dead -1); higher = more abundant; growth selection in yeast, the domain comes from the species named; details: Homo sapiens
parameterMeasured: abundance fitness
Response field accepts a number only; no unit should be typed.

QEVDTIELTRQVKEKLAKWGICQRIFGEKVLGLSQGSVSDMLSRPKPWSKLTQKGREPFIRMQLWLNG [N19W] ... -0.234
QEVDTIELTRQFKEKLAKNGICQRIFGEKVLGLSQGSVSDMLSRPKPWSKLTQKGREPFIRMQLWLNG [V12F] ... -0.289
QEVDTIELTRQVKEKLAKNGICLRIFGEKVLGLSQGSVSDMLSRPKPWSKLTQKGREPFIRMQLWLNG [Q23L] ... -0.038
QEVDTIELTRQVKTKLAKNGICQRIFGEKVLGLSQGSVSDMLSRPKPWSKLTQKGREPFIRMQLWLNG [E14T] ... -0.121
QEVDTIELTRAVKEKLAKNGICQRIFGEKVLGLSQGSVSDMLSRPKPWSKLTQKGREPFIRMQLWLNG [Q11A] ... -0.13

Enquiry: Quick one: abundance fitness for QEVDTIELTRQVKEKLAKNGICQRIFGEKVLGLSQGSVSDMLSRPMPWSKLTQKGREPFIRMQLWLNG [K46M] ?
Return: -0.15

Enquiry: Quick one: abundance fitness for QEVDTIELTRQVKEKLAKNGICQRIFGEKVLGLSQGSVSDMLSRPKPWSYLTQKGREPFIRMQLWLNG [K50Y] ?
Return: -0.138

Enquiry: Quick one: abundance fitness for QEVDTIELTRQVKEKLAKNGICQRIFGEKVLSLSQGSVSDMLSRPKPWSKLTQKGREPFIRMQLWLNG [G32S] ?
Return: -0.195

Enquiry: Quick one: abundance fitness for QEVDTIELTRQVKEKLAKNGICQRIFGEKVLGLSQGSVSDMLHRPKPWSKLTQKGREPFIRMQLWLNG [S43H] ?
Return: 0.049

Enquiry: Quick one: abundance fitness for QEVDTIELTRQVKEKLAKNGICQRIFGEKVLGLSQGSVSDMLSRLKPWSKLTQKGREPFIRMQLWLNG [P45L] ?
Return: -0.202

Enquiry: Quick one: abundance fitness for QEVDTIELTRQVKEKLAKNGKCQRIFGEKVLGLSQGSVSDMLSRPKPWSKLTQKGREPFIRMQLWLNG [I21K] ?
Return: -0.381

Enquiry: Quick one: abundance fitness for QEWDTIELTRQVKEKLAKNGICQRIFGEKVLGLSQGSVSDMLSRPKPWSKLTQKGREPFIRMQLWLNG [V3W] ?
Return: -0.528

Enquiry: Quick one: abundance fitness for QEMDTIELTRQVKEKLAKNGICQRIFGEKVLGLSQGSVSDMLSRPKPWSKLTQKGREPFIRMQLWLNG [V3M] ?
Return: -0.045

Enquiry: Quick one: abundance fitness for QEVDTIELTRQVKEKLAKNGICQRIFGEKVLGLSQGSVSCMLSRPKPWSKLTQKGREPFIRMQLWLNG [D40C] ?
Return: -0.209

Enquiry: Quick one: abundance fitness for QEVDTIELTRQVKEKLAKNGICQRIFGWKVLGLSQGSVSDMLSRPKPWSKLTQKGREPFIRMQLWLNG [E28W] ?
Return: -0.104

Enquiry: Quick one: abundance fitness for QEVDTIELTRQVKEKLAKNGICQRIFGEKVLGLSQGSVSDMLSRPKPWSKVTQKGREPFIRMQLWLNG [L51V] ?
Return: -0.394

Enquiry: Quick one: abundance fitness for QEVDTIELTRQVKEKLAKFGICQRIFGEKVLGLSQGSVSDMLSRPKPWSKLTQKGREPFIRMQLWLNG [N19F] ?
Return: 0.07

Enquiry: Quick one: abundance fitness for QEVDTIELTRQVKEKLAKNGICQRIFGEKVLQLSQGSVSDMLSRPKPWSKLTQKGREPFIRMQLWLNG [G32Q] ?
Return: -0.138

Enquiry: Quick one: abundance fitness for QEVDTIELTRQVKEKLAKNGICQRIFGEKVLGLSQGSVSDMLSHPKPWSKLTQKGREPFIRMQLWLNG [R44H] ?
Return: -0.125

Enquiry: Quick one: abundance fitness for QEVDTIELTRQVKEKLAKNGICQRIFGEKVLGLLQGSVSDMLSRPKPWSKLTQKGREPFIRMQLWLNG [S34L] ?
Return: -0.113
